Entries below carry reported Ki on D(2) dopamine receptor (Homo sapiens).
Sequence (P14416 whole entry): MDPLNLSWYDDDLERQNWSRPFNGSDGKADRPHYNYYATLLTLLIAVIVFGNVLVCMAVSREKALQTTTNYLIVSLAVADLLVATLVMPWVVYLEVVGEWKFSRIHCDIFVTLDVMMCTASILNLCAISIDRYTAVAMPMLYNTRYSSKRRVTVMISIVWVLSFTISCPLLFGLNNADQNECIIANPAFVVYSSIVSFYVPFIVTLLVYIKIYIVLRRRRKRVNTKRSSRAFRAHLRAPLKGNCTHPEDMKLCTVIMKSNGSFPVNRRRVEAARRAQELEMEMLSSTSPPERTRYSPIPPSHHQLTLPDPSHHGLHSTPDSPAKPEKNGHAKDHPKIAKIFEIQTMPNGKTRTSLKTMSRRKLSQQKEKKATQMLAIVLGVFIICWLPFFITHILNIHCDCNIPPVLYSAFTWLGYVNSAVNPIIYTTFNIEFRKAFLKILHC
readoutName: Ki (nM)

[I] CCc1cc(Cl)c(OC)c(C(=O)NC[C@@H]2CCCN2CC)c1O [ETICLOPRIDE]
[II] CCc1cc(Cl)c(OC)c(C(=O)NC[C@@H]2C[C@@H](OCCCc3ccccc3)CN2)c1O
[III] CCc1cc(Cl)c(OC)c(C(=O)NC[C@@H]2C[C@@H](OCCCCNC(=O)c3cc4ccccc4o3)CN2)c1O
[IV] CCc1cc(Cl)c(OC)c(C(=O)NC[C@@H]2CCCN2CCCCOc2ccc3c(c2)NC(=O)CC3)c1O
Rank the 4 compounds: largest Ki first, smallest last. Use the labels to give the requested order.
IV, II, III, I
(IV: 25.3 nM, II: 7.42 nM, III: 2.29 nM, I: 0.117 nM)

Numbers sourced from ChEMBL document CHEMBL4825766.
